Tested on: GAL4DBD-VP16 transactivation domain fusion (Human herpesvirus 1 VP16)
Test: GAL4-VP16 transactivation inhibitors, late-stage follow-up, counter-screen for RORA inverse agonist project, cell-based, luminescence, HEK293T, powder samples (AID 463148)
Details: HEK293T GAL4-VP16 UAS-luciferase, 18-24 h, at 10 µM
Activity calls are given as the source filed them.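 How the source made its calls: active means fold change inhibition above 1.5; inactive means the rest.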
API: response.call in true (1) (active), false (0) (inactive)

Prompt: Record lookup: outcome of this test for O=S(=O)(Nc1ccc(C(O)(C(F)(F)F)C(F)(F)F)cc1)c1cccs1 ?
Completion: false (0)

Prompt: Record lookup: outcome of this test for O=C(Nc1ccc(C(O)(C(F)(F)F)C(F)(F)F)cc1)c1c(F)cccc1F ?
Completion: false (0)

Prompt: Record lookup: outcome of this test for O=C(Nc1ccc(C(O)(C(F)(F)F)C(F)(F)F)cc1)c1ccccc1C(F)(F)F ?
Completion: false (0)

Prompt: Record lookup: outcome of this test for O=C(Nc1ccc(C(O)(C(F)(F)F)C(F)(F)F)cc1)c1ccc(Cl)cc1 ?
Completion: false (0)

Prompt: Record lookup: outcome of this test for O=C(Nc1ccc(C(O)(C(F)(F)F)C(F)(F)F)cc1)c1ccc(F)cc1Cl ?
Completion: false (0)

Prompt: Record lookup: outcome of this test for O=C(Nc1ccc(C(O)(C(F)(F)F)C(F)(F)F)cc1)c1ccc(F)cc1F ?
Completion: true (1)

Every entry's value here was drawn from PubChem BioAssay AID463148.
